# Test system: HCT-116 colon
# METHOD_DESCRIPTION: NCI tumour cell line growth inhibition, 48 h
ENDPOINT: TGI

Record excerpt, results attached:
{"columns": ["MOLECULE", "TGI"],
 "data": [
  ["CC1(C)O[C@@H](CO)[C@H]([C@@]23OC[C@H]4OC(C)(C)OC4[C@@H]2OC(C)(C)O3)O1 (stereo not given in full)", "> 100 µM"],
  ["O=C(N/N=C\\c1cccc2ccccc12)Nc1ccc([N+](=O)[O-])cc1", "> 53.7 µM"],
  ["COC(=O)C(/C(=N/NC(=O)c1ccncc1)C(=O)Nc1ccccc1OC)c1nc2ccc(Cl)cc2[nH]c1=O (stereo not given)", "> 100 µM"],
  ["CC[C@@]1(O)C(=O)NCc2c1cc1n(c2=O)Cc2cc3ccccc3nc2-1", "> 74.2 µM"],
  ["COc1ccc(C2OC(=O)c3c2ccc2ccccc32)c(C)c1 (stereo not given)", "> 100 µM"],
  ["Cc1cc2ccccc2n1CC(=O)NCC(C)C", "> 100 µM"],
  ["S=C(N/N=C\\C=N/NC(=S)N1CCCCCC1)N1CCCCCC1", "> 100 µM"],
  ["O=C(NCc1cccnc1)/C(=C\\c1ccc(Br)cc1)S(=O)(=O)c1ccccc1", "1.84 µM"]
]}

Dear colleague, could you please provide TGI for the molecules listed below?
1. OC1CCCC1C(O)(C(F)(F)F)C(F)(F)F (stereo not given)
2. Cc1cc2ccccc2c[n+]1CC(O)C[n+]1cc2ccccc2cc1C

1: > 100 µM; 2: > 100 µM

Dear colleague, could you please provide TGI for the molecules listed below?
1. Cc1cccc(NC(=O)C(=O)C2C(=O)NC(=O)NC2=O)c1C
2. CCCn1c(C23CC4CC(CC(C4)C2)C3)nc2ccc(Cl)cc2c1=O
3. COc1ccc(C(O)c2ccc3c(c2)OCO3)cc1 (stereo not given)

["> 100 µM", "> 100 µM", "> 100 µM"]

Dear colleague, could you please provide TGI for the molecules listed below?
1. Nc1ccc2c(c1)C(=O)c1ccccc1-2
2. NC(N)=N/N=C/c1c(-c2ccc([N+](=O)[O-])cc2)nc2sccn12
3. COc1ccc(/C=C/c2c(C(=O)/C=C/c3ccc(Cl)cc3)c(C)nc3ccccc23)cc1
4. COc1cc(C)c(C(=O)O[C@H]2[C@H](O[C@H]3[C@@H](O)COC(O[C@H]4C[C@H]5[C@@H]6CC=C7C[C@@H](O)CC[C@]7(C)[C@H]6CC[C@]5(C)[C@H]4[C@H](C)C(=O)CCC(C)C)[C@@H]3OC(C)=O)OC[C@@H](O)[C@@H]2O)c(C)c1 (stereo not given in full)
5. CC1=CC(O)C(O)C2(C)C1CC1OC(=O)C(O)C3C(C)C(O)C4(O)OCC13C42 (stereo not given)
6. Clc1nc(-[n+]2ccc(-c3ccncc3)cc2)nc(Nc2ccccc2)c1Cl
7. Nc1nc2c(ncn2C2OC(CO)C(O)C2N)c(=O)[nH]1 (stereo not given)

1: > 100 µM; 2: 3.05 µM; 3: 2.19 µM; 4: 2.29 µM; 5: > 625 µM; 6: > 100 µM; 7: > 100 µM

###

# Tested on: U251 CNS
Thanks in advance; please answer with one of these: yes (1) (active), no (0) (inactive)

Please review the following examples before continuing.
{"columns": ["COMPOUND", "GROUP"],
 "data": [
  ["CCCCCCCCCCCCn1c(C)nc2ccccc21", "no (0)"],
  ["CCSc1oc(-c2ccccc2)nc1[P+](c1ccccc1)(c1ccccc1)c1ccccc1", "yes (1)"],
  ["COc1ccc(SC2c3cc(OC)c(OC)cc3Oc3nc(N)c(C#N)c(N)c32)cc1 (stereo not drawn)", "no (0)"]
]}

Hello, I am checking results. What call was entered for CC(=O)Oc1ccc(OC(C)=O)c2ccccc12 ?
no (0)

Hello, I am checking results. What call was entered for Cl.[Pt].[c-]1ccccc1-c1ccccn1.c1ccc(P(c2ccccc2)C([PH+](c2ccccc2)c2ccccc2)[PH+](c2ccccc2)c2ccccc2)cc1 ?
no (0)

Hello, I am checking results. What call was entered for CC1(C)CCC[C@]23C(=O)O[C@](O)(C(=O)C4=C[C@@](C)(/C=C/CCCc5ccc6ccc7cccc8ccc5c6c78)CC[C@@]42O)[C@@H]13 ?
yes (1)

Hello, I am checking results. What call was entered for CN(C)CCCNc1nn2c(=O)c3ccccc3nc2c2ccccc12 ?
no (0)

Hello, I am checking results. What call was entered for Oc1ccc2oc3ncc(Cl)c(-c4ccccc4)c3c2c1 ?
no (0)

###

Record form. Attribute: TGI. Fill in for each entry.
# Tested on: SF-539 CNS
# METHOD_DESCRIPTION: NCI tumour cell line growth inhibition, 48 h

Dear colleague, could you please provide TGI for the compounds listed below?
1. Cc1cc(NS(=O)(=O)c2ccc(Nc3c4ccccc4nc4c(C(=O)Nc5ccc(S(=O)(=O)N=C(N)N)cc5)cccc34)cc2)no1
2. Nc1nc2c(ncn2C2OC(CO)C(O)C2N)c(=O)[nH]1 (stereo not given)
3. C=C1CCC2C3(C)COC(c4ccc(NC(C)=O)cc4)OC3CCC2(C)C1C/C=C1/C(=O)OCC1O (stereo not given)
4. C(=N\Nc1nnc2c(n1)[nH]c1ccccc12)/c1cccnc1
5. NC(Cc1cc(I)c(O)c(I)c1)C(=O)O (stereo not given)
6. CN1CCn2c(Br)ccc2C1=O
7. C=CCC(CNC(=O)OCc1ccccc1)O[Si](C)(C)C(C)(C)C (stereo not given)

> 100 µM
> 100 µM
> 100 µM
> 100 µM
> 500 µM
> 100 µM
93.2 µM

###

# Test system: CAKI-1 renal
# METHOD_DESCRIPTION: NCI tumour cell line growth inhibition, 48 h
ENDPOINT: log10 of TGI (log10 of the value in µM)
Please note: log10 values; quantity TGI; unit µM.

{"columns": ["SMILES_TEXT", "log10 of TGI"],
 "data": [
  ["Cc1csc2c1C(=O)c1ccsc1C2=O", 1.53],
  ["CC(C)C[C@H](NC(=O)[C@H](CCc1ccccc1)NC(=O)CN1CCOCC1)C(=O)N[C@@H](Cc1ccccc1)C(=O)N[C@@H](CC(C)C)C(=O)[C@@]1(C)CO1", -0.11],
  ["O=C(c1ccccc1)c1c(C(F)(F)F)n([O-])c2ccccc2[n+]1=O", 0.29],
  ["O=C1NC(=O)/C(=C/C=C/c2ccccc2)S1", 0.95]
]}

Which log10 of TGI is reported with CAKI-1 renal for this entry: c1ccc2c(CNCCCCCCNCc3cccc4ccccc34)cccc2c1 ?
1.32

###

# Tested on: IGROV1 ovarian
# METHOD_DESCRIPTION: NCI tumour cell line growth inhibition, 48 h
ENDPOINT: GI50

Record excerpt, results attached:
{"columns": ["COMPOUND", "GI50"],
 "data": [
  ["C=C(CN1CCN(c2ccccc2OC)CC1)c1ccc(C(=O)Nc2ccccc2N)cc1", "9.54 µM"],
  ["Cn1c2ccccc2c(=Nc2ccccc2)c2c3ccccc3[nH]c21", "1.64 µM"],
  ["Cn1nc(C(F)(F)F)c(-c2ccc(Cl)c(C(F)(F)F)c2)c1-c1ccc(OCc2ccc(Cl)cc2)cc1O", "2.18 µM"],
  ["CN(C)c1ccc(/C=C2\\C[C@H]3[C@@H]4CC=C5C[C@@H](N6CCCC6)CC[C@]5(C)[C@H]4CC[C@]3(C)[C@H]2O)cc1", "3.92 µM"],
  ["Cc1ccc2c(c1)C(=O)c1c-2n(CCCN)c(=O)c2cc([N+](=O)[O-])ccc12", "0.176 µM"]
]}

Next item in the queue.
Reported GI50, compound C=C(C=O)C1CC(=O)C(C(=O)OC)[C@@H]2O[C@@](C)(CC2=O)C[C@@H]2OC(=O)[C@]3(O[C@@H]23)[C@@H](C(=O)OC)C1 (stereo partly specified) : ____
4.56 µM

###

# System: ACHN renal
# METHOD_DESCRIPTION: NCI tumour cell line growth inhibition, 48 h
ENDPOINT: TGI

Record excerpt, results attached:
{"columns": ["COMPOUND", "ENDPOINT", "OBSERVED_RESULT"],
 "data": [
  ["Cn1cnc([N+](=O)[O-])c1Sc1ccccn1", "TGI", "> 100 µM"],
  ["C/C(O)=C(\\C=N\\C(N)=S)C(=O)Nc1ccccc1C", "TGI", "> 100 µM"],
  ["c1ccc(CCN2CCCCCC2)nc1", "TGI", "> 100 µM"],
  ["COC(=O)C(=O)C1(CCC(C)=O)c2ccccc2-c2ccccc21", "TGI", "> 100 µM"],
  ["Cc1cccc(C(C)(C)C)c1NC(=O)/C(Cc1nc2ccc([N+](=O)[O-])cc2[nH]c1=O)=N/NC(=O)C[N+](C)(C)C", "TGI", "> 100 µM"]
]}

Dear colleague, could you please provide TGI for the compounds listed below?
1. CCOC(=O)c1ccc2nc(NC(=O)COC(=O)CSc3nc(C)cc(C)n3)sc2c1
2. NC(N)=N/N=C/c1c(-c2ccc([N+](=O)[O-])cc2)nc2sccn12
3. Cc1ccc(C(=O)N(C(C)C)C(C)C)cc1N=NN(C)C
4. N#CCCC1C(C#N)C2CC1C1C3C=CC(C3)C21 (configuration not stated)

> 100 µM
7.27 µM
> 100 µM
> 100 µM

Dear colleague, could you please provide TGI for the compounds listed below?
1. CCOC(=O)C(C)(C)Oc1ccc2c(=O)cc(-c3ccccc3)oc2c1
2. Nc1nc2c(ncn2C2OC(CO)C(O)C2N)c(=O)[nH]1 (configuration not stated)
3. CC1(C)N=C(N)N=C(N)N1c1cccc(C#N)c1
4. C[Si](C)(C)/C=C/CCC(C=O)(CCCl)c1ccccc1 (configuration not stated)
5. CC(C)CCC[C@@H](C)[C@H]1CC[C@H]2[C@@H]3CC=C4C[C@@H](OC(=O)c5cccc6c(=O)c7ccccc7[nH]c56)CC[C@]4(C)[C@H]3CC[C@]12C
6. CNC(=O)CCC(NC(C)=O)C(=O)NC(Cc1ccc(NC(=O)CCCCC(C)=O)cc1)C(=O)NC(CCC(=O)NC)C(=O)NC (configuration not stated)
7. COC(=O)C1=C(OC)c2cc3c(cc2C(c2cc(OC)c(OC)c(OC)c2)C1C(=O)OC)OCO3 (configuration not stated)

1: > 100 µM; 2: > 100 µM; 3: > 100 µM; 4: 73.2 µM; 5: > 75 µM; 6: > 100 µM; 7: > 100 µM

Dear colleague, could you please provide TGI for the compounds listed below?
1. C/C(=C\c1ccc(Cl)cc1)C(C)(C)C(=O)O
2. Cc1cc(NS(=O)(=O)c2ccc(Nc3c4ccccc4nc4c(C(=O)Nc5ccc(S(=O)(=O)N=C(N)N)cc5)cccc34)cc2)no1
3. COC(=O)c1c[nH]c(=O)[nH]c1=O
4. S=c1nc(-c2ccccc2)oc(=NC2CCCCC2)n1C1CCCCC1
5. CN(C(=O)C1(C(=O)C=[N+]=[N-])CC1)c1ccccc1

1: > 100 µM; 2: > 100 µM; 3: > 100 µM; 4: 14.2 µM; 5: > 100 µM

Reported TGI, compound O=P(Oc1ccc(Cl)cc1)(Oc1ccc(Cl)cc1)N1CC1 : ____
> 10 µM
